Assayed system: T1, similar peptide SP-05-0003, source protein not stated peptide on HLA-A*02:01 (human)
T1 peptide: KVTEMLVNV
Protocol text: killing
Endpoint name: binding result

[[record]]
binder = "TCR-8 (TCR, V domains shown) Valpha: QKVTQAQTEISVVEKEDVTLDCVYETRDTTYYLFWYKQPPSGELVFLIRRNSFDEQNEISGRYSWNFQKSTSSFNFTITASQVVDSAVYFCALSGRGSGTYKYIFGTGTRLKVLA Vbeta: GVIQSPRHLIKEKRETATLKCYPIPRHDTVYWYQQGPGQDPQFLISFYEKMQSDKGSIPDRFSAQQFSDYHSELNMSSLELGDSALYFCASSAGTSYNEQFFGPGTRLTVL"
endpoint_name = "binding result"
value_observed = "no recognition"

[[record]]
binder = "TCR-5 (TCR, V domains shown) Valpha: QQLNQSPQSMFIQEGEDVSMNCTSSSIFNTWLWYKQDPGEGPVLLIALYKAGELTSNGRLTAQFGITRKDSFLNISASIPSDVGIYFCAGGYNYGQNFVFGPGTRLSVLP Vbeta: GVTQTPKHLITATGQRVTLRCSPRSGDLSVYWYQQSLDQGLQFLIQYYNGEERAKGNILERFSAQQFPDLHSELNLSSLELGDSALYFCASSAGLAGGYEQYFGPGTRLTVT"
endpoint_name = "binding result"
value_observed = "no recognition"

